Molecular target: Protein-arginine deiminase type-1 (Homo sapiens)
Test: PAD1-4 inhibition by competitive ABPP, late-stage follow-up, orthogonal assay for PAD4 inhibitor project, biochemical, fluorescence, gel-based ABPP, HTS hits (AID 588487)
Settings: recombinant PAD1-4, gel-based ABPP, RFA probe fluorescence; PAD1; at 10 µM; hits give high values
Classification field: enter t for inhibition values not below 20%, f for values below it.

As a guide, the following entries are already answered.
O=C(O)c1ccc(S(=O)(=O)c2ccc3c(c2)C(=O)N(c2ccc(O)cc2)C3=O)cc1 = f
O=c1cc(-c2ccc(Br)cc2)[nH][nH]1 = f
CCC(=O)Oc1ccc(C(=O)Nc2cccc(C(=O)NC(C)(C)C)c2)cc1 = t
Cc1cc2ncn(-c3ncccc3[N+](=O)[O-])c2cc1C = t
O=C(O)CCC(=O)c1ccc(-c2ccccc2)cc1 = f

Does the reported inhibition for c1ccc(CCn2c3ccccc3c3nnc(SCc4ccc5nonc5c4)nc32)cc1 fall at or above the 20% mark?
f

Does the reported inhibition for Cc1ccc(C2=NN=C(NC(=O)CSc3nncn3C)SC2)cc1 fall at or above the 20% mark?
f

Does the reported inhibition for Cn1c(=O)c2c(ncn2CC(=O)Nc2nc(-c3ccccc3Cl)cs2)n(C)c1=O fall at or above the 20% mark?
f

Reference source: PubChem BioAssay AID588487
